Taken from patent US8247211B2.

Consider the following compounds; for each one, report its MIC Staphylococcus aureus (ATCC 29213).
test system: Staphylococcus sp.; assay: In vitro antibacterial evaluation: minimum inhibitory concentration (MIC), broth dilution method; format: cell-based; conditions: strain ATCC 29213
Give bare numbers, in µg/mL.

Solved entries (count: 3):
Compound	Target Or Test System	Measure Name	Unit Of Measurement	Meas Value
CC(c1ccccc1)C1NC(=O)CNC(=O)C(CO)NC(=O)C(C(O)C2CNC(=N)N2C2OC(CO)C(O)C(O)C2O)NC(=O)C(C(O)C2CNC(=N)N2)NC(=O)C(Cc2ccc(OC3OC(CO)C(OC4OC5COC(C6CC=CCC6)OC5C(O)C4O)C(O)C3O)cc2)NC1=O (centres unmarked)	Staphylococcus sp.	MIC Staphylococcus aureus (ATCC 29213)	µg/mL	1
CC(c1ccccc1)C1NC(=O)CNC(=O)C(CO)NC(=O)C(C(O)C2CNC(=N)N2C2OC(CO)C(O)C(O)C2O)NC(=O)C(C(O)C2CNC(=N)N2)NC(=O)C(Cc2ccc(OC3OC(CO)C(OC4OC5COC(Cc6ccc(F)cc6)OC5C(O)C4O)C(O)C3O)cc2)NC1=O (centres unmarked)	Staphylococcus sp.	MIC Staphylococcus aureus (ATCC 29213)	µg/mL	1
CC(c1ccccc1)C1NC(=O)CNC(=O)C(CO)NC(=O)C(C(O)C2CNC(=N)N2C2OC(CO)C(O)C(O)C2O)NC(=O)C(C(O)C2CNC(=N)N2)NC(=O)C(Cc2ccc(OC3OC(CO)C(OC4OC5COC6(CC7CCC6(C)C7(C)C)OC5C(O)C4O)C(O)C3O)cc2)NC1=O (centres unmarked)	Staphylococcus sp.	MIC Staphylococcus aureus (ATCC 29213)	µg/mL	0.5

# per-item lookup of MIC Staphylococcus aureus (ATCC 29213); items listed below
1. CC(c1ccccc1)C1NC(=O)CNC(=O)C(CO)NC(=O)C(C(O)C2CNC(=N)N2C2OC(CO)C(O)C(O)C2O)NC(=O)C(C(O)C2CNC(=N)N2)NC(=O)C(Cc2ccc(OC3OC(CO)C(OC4OC5COC(C)(c6ccc(F)cc6)OC5C(O)C4O)C(O)C3O)cc2)NC1=O (centres unmarked)
2. CC(c1ccccc1)C1NC(=O)CNC(=O)C(CO)NC(=O)C(C(O)C2CNC(=N)N2C2OC(CO)C(O)C(O)C2O)NC(=O)C(C(O)C2CNC(=N)N2)NC(=O)C(Cc2ccc(OC3OC(CO)C(OC4OC5COC(CC6CCN(C(=O)OCc7ccccc7)CC6)OC5C(O)C4O)C(O)C3O)cc2)NC1=O (centres unmarked)
3. CC(c1ccccc1)C1NC(=O)CNC(=O)C(CO)NC(=O)C(C(O)C2CNC(=N)N2C2OC(CO)C(O)C(O)C2O)NC(=O)C(C(O)C2CNC(=N)N2)NC(=O)C(Cc2ccc(OC3OC(COC(=O)CCC4CCCC4)C(OC4OC(CO)C(O)C(O)C4O)C(O)C3O)cc2)NC1=O (centres unmarked) [Example 100b]
4. CC(C1CCCCC1)C1NC(=O)CNC(=O)C(CO)NC(=O)C(C(O)C2CNC(=N)N2C2OC(CO)C(O)C(O)C2O)NC(=O)C(C(O)C2CNC(=N)N2)NC(=O)C(Cc2ccc(OC3OC(CO)C(OC4OC5COC(c6ccccc6)OC5C(O)C4O)C(O)C3O)cc2)NC1=O (centres unmarked)

2
1
2
0.25

Record MIC Staphylococcus aureus (ATCC 29213) per entry; entries follow.
1. CC(c1ccccc1)C1NC(=O)CNC(=O)C(CO)NC(=O)C(C(O)C2CNC(=N)N2C2OC(CO)C(O)C(O)C2O)NC(=O)C(C(O)C2CNC(=N)N2)NC(=O)C(Cc2ccc(OC3OC(CO)C(OC4OC5COC(CC(C)(C)C)OC5C(O)C4O)C(O)C3O)cc2)NC1=O (centres unmarked)
2. CC(c1ccccc1)C1NC(=O)CNC(=O)C(CO)NC(=O)C(C(O)C2CNC(=N)N2C2OC(CO)C(O)C(O)C2O)NC(=O)C(C(O)C2CNC(=N)N2)NC(=O)C(Cc2ccc(OC3OC(CO)C(OC4OC5COC6(OC5C(O)C4O)C4CCCC6CCC4)C(O)C3O)cc2)NC1=O (centres unmarked)
3. N=C1NCC(C(O)C2NC(=O)C(Cc3ccc(OC4OC(CO)C(OC5OC6COC(CCc7ccccc7)OC6C(O)C5O)C(O)C4O)cc3)NC(=O)C(CC3CCCCC3)NC(=O)CNC(=O)C(CO)NC(=O)C(C(O)C3CNC(=N)N3C3OC(CO)C(O)C(O)C3O)NC2=O)N1 (centres unmarked)
4. CC(c1ccccc1)C1NC(=O)CNC(=O)C(CO)NC(=O)C(C(O)C2CNC(=N)N2C2OC(CO)C(O)C(O)C2O)NC(=O)C(C(O)C2CNC(=N)N2)NC(=O)C(Cc2ccc(OC3OC(CO)C(OC4OC5COC(c6ccc(C(=O)c7ccc(I)cc7)cc6)OC5C(O)C4O)C(O)C3O)cc2)NC1=O (centres unmarked)

[1, 2, 0.5, 2]
